Test: Volume of distribution at steady state in rat
Type: ADME, organism-based
Settings: in vivo, read-out: Vdss
experimental_readout: Vd
Don't forget the unit after the value.

Task item: Dear colleague, I am looking for the recorded Vd of the following compound: CC(C)(C)OC[C@@H]1C(=O)NCCN1C(=O)C[C@H](N)Cc1cc(F)c(F)cc1F
Reply: 12 L/kg

---

Target: Voltage-gated inwardly rectifying potassium channel KCNH2 (Homo sapiens)
Sequence (Q12809 whole entry): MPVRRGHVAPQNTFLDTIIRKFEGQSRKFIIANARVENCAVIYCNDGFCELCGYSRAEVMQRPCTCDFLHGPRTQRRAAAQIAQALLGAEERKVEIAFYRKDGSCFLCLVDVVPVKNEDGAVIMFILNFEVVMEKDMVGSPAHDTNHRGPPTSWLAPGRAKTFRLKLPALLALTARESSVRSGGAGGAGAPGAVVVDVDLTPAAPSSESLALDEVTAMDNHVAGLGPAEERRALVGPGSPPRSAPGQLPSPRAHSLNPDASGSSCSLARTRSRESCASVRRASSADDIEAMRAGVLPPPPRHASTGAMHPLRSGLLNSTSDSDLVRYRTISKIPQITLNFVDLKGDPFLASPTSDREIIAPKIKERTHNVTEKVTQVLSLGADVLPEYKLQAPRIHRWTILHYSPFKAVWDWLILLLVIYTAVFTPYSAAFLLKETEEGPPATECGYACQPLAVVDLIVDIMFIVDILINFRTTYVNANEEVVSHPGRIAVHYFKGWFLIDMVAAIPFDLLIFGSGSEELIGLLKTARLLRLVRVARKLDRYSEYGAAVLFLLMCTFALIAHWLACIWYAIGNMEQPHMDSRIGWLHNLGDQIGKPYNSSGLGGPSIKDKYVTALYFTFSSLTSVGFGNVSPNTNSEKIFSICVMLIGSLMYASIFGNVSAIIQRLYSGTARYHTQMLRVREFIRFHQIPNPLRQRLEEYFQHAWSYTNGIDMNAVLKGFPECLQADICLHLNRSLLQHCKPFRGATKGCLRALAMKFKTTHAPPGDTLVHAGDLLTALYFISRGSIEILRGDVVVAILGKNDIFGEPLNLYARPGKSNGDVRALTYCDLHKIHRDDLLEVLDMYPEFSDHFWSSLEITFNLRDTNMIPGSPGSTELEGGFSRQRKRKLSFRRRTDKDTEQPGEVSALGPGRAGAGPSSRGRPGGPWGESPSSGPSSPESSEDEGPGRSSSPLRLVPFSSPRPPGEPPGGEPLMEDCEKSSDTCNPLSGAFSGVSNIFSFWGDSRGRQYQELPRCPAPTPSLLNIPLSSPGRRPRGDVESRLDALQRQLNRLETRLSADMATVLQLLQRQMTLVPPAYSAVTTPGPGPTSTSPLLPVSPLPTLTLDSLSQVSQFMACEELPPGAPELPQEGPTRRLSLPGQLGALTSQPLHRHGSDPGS
Test: Inhibition of human ERG by patch clamp method
experimental_readout: IC50
Be sure to follow the number with its unit.

Task item: Endpoint output: IC50 of CC(C)(C)OC[C@@H]1C(=O)NCCN1C(=O)C[C@H](N)Cc1cc(F)c(F)cc1F . Value?
Reply: 79.6 µM
